Source of measurements: patent US4610994A

// reported LD50 at 24 h for each item listed
- method_summary: in vivo
- experimental_parameters: mouse, ip
Please state the figure in mg/kg; there is no need to write the unit.

[
  {
    "compound": "Clc1ccc(-n2nncc2-c2cccnc2)cc1",
    "LD50 at 24 h / mg/kg": 569
  }
]

Req: Give the value of LD50 at 24 h reported for the following: CCC1(C)CC(=O)NC1=O (centres unmarked) [Ethosuximide]
Resp: 1750

---

- method_summary: in vivo
- experimental_parameters: mouse, po
value_kind: TD50

[
  {
    "compound": "Clc1ccc(-n2nncc2-c2cccnc2)cc1 [Compound 10]",
    "TD50": "729 mg/kg"
  }
]

Req: Assign TD50 to the following record: CCC1(C)CC(=O)NC1=O (centres unmarked) [Ethosuximide]
Resp: 879 mg/kg

---

- method_summary: minimal neurotoxicity (ataxia, loss of placing response and muscle tone) in rats
- experimental_parameters: rat, in vivo, po
value_kind: TD50 (mg/kg)
Just the number in mg/kg, nothing appended.

Req: Give the value of TD50 reported for the following: Clc1ccc(-n2nncc2-c2cccnc2)cc1
Resp: 44.5
